Data provenance is ChEMBL document CHEMBL1287675.

- Target Desc: UniProtKB P22303
- Sequence (P22303 whole entry): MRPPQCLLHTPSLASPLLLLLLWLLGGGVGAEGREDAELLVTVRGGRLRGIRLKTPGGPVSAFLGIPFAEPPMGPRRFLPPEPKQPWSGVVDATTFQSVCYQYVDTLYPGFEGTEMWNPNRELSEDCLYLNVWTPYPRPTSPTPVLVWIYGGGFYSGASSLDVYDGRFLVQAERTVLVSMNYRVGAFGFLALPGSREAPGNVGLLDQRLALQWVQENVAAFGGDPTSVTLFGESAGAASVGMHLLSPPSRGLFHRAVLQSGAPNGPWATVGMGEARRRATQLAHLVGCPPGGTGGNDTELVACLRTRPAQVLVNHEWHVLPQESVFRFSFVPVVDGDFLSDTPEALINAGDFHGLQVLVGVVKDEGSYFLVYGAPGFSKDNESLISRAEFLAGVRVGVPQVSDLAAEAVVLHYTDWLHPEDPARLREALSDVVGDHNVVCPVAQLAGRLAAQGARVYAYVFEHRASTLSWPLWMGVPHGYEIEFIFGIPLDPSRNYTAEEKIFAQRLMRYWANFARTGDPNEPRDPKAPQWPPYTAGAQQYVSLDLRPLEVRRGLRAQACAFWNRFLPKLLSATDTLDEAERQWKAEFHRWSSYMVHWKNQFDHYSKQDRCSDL
This section presents compounds with their documented pIC50 values.
As a rule, pIC50 stands for the negative log10 of the concentration, concentration in M.

> print(dat)
                                   compound  numeric.result
1  COc1cc2c(cc1OC)C(=O)C1(C2)C(c2ccccc2)C(c2ccccc2)NC12C(=O)Nc1ccc([N+](=O)[O-])cc12 (centres undefined)            5.43

Can you look up pIC50 on UniProtKB P22303 for COc1cc2c(cc1OC)C(=O)C1(C2)C(c2ccccc2)CN(C)C12C(=O)Nc1ccc([N+](=O)[O-])cc12 (centres undefined) ?
4.88

Can you look up pIC50 on UniProtKB P22303 for COc1cc2c(cc1OC)C(=O)C1(C2)C(c2ccc(F)cc2)CN(C)C12C(=O)Nc1ccc([N+](=O)[O-])cc12 (centres undefined) ?
5.07

Can you look up pIC50 on UniProtKB P22303 for COc1cc2c(cc1OC)C(=O)C1(C2)C(c2ccc(F)cc2)CN(C)C12C(=O)Nc1ccccc12 (centres undefined) ?
5.67
